Assay: refractive index (Na D-line) (dimensionless)
Conditions: 298.15 K; 101.33 kPa; Liquid; Standard Abbe refractometry
refractive index values by entry
// print number alone

{"Compound": "Cc1ccccc1C [1,2-dimethylbenzene]", "refractive index": 1.5028}
{"Compound": "C=C(C)CC(C)(C)C [2,4,4-trimethyl-1-pentene]", "refractive index": 1.4062}

What value of refractive index has been recorded for this entry: CC(C)CC(C)(C)C [2,2,4-trimethylpentane]
1.3889

What value of refractive index has been recorded for this entry: C=CCCCC [hex-1-ene]
1.3849

What value of refractive index has been recorded for this entry: Cc1ccsc1 [3-methylthiophene]
1.5172

What value of refractive index has been recorded for this entry: C1CCCCC1 [cyclohexane]
1.4235
